# target or system: MPV fusion glycoprotein without the D280N mutation (MPV-F D280) (metapneumovirus)
# assay notes: biolayer interferometry (BLI), rIgG1 with M428L/N434S
# Kd annotations

Record excerpt, results attached:
MPH12-v34 (VH-FRGL-S63A/VL-FRGL-D25S) (antibody, V domains shown) VH: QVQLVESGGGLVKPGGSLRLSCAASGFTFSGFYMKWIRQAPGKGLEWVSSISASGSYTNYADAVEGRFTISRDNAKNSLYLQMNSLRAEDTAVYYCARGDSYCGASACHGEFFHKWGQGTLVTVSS VL: QSVLTQPPSVSGAPGQRVTISCTGSSSNIGADFDVHWYQQLPGTAPKLLIYGNINRPSGVPDRFSGSKSGTSASLAITGLQAEDEADYYCQSYDRSLHYVFGTGTKVTVL: 0.039 nM
MPH12-v29 (VH-FRGL-D62E/VL-S26A) (antibody, V domains shown) VH: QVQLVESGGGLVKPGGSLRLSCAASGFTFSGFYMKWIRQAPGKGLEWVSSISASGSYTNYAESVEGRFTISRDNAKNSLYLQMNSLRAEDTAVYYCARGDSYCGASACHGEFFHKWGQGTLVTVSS VL: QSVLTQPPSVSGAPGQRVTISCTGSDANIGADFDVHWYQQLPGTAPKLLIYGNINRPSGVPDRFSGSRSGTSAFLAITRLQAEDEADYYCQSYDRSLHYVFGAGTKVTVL: 0.027 nM

Q: Fill in: Kd of MPH12-v35 (VH-FRGL-D62E/VL-FRGL-D25S) (antibody, V domains shown) VH: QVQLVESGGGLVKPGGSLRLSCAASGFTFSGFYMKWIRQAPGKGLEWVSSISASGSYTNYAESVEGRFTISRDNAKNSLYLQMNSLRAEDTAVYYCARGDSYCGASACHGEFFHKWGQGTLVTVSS VL: QSVLTQPPSVSGAPGQRVTISCTGSSSNIGADFDVHWYQQLPGTAPKLLIYGNINRPSGVPDRFSGSKSGTSASLAITGLQAEDEADYYCQSYDRSLHYVFGTGTKVTVL is ___
Ans: 0.028 nM

Q: Request: MPH12-v17 (VH-FRGL-D62E/VL-D25S) (antibody, V domains shown) VH: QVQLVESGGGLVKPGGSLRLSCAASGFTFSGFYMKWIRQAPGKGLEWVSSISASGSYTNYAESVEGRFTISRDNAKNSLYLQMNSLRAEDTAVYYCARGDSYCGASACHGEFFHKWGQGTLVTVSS VL: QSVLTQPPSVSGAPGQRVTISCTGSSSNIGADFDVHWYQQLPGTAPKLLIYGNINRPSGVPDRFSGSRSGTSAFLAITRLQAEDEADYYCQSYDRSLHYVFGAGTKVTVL
Ans: 0.028 nM
